Ref: PubChem BioAssay

Assay: inhibitors of poly I:C-induced TLR3 signaling, primary screen, cell-based, poly I:C stimulus, luciferase, 10K MLSCN set (AID 602277)
Details: HEK293-TLR3 RL24 IRF3 luciferase reporter, at 10 µM, stronger effect = higher value
endpoint_name: inhibition (%)

molecule: CC(C)(C)c1ccc(C(O)CCCN2CCC(C(O)(c3ccccc3)c3ccccc3)CC2)cc1 (stereo not given)
result_unit: %
obs_value: 30

molecule: CCC(=O)Oc1ccc(/C(CC)=C(\CC)c2ccc(OC(=O)CC)cc2)cc1
result_unit: %
obs_value: 42.9

molecule: Cc1cc(NCC2CCCO2)n2c(nc3ccccc32)c1C#N (stereo not given)
result_unit: %
obs_value: 15.3

molecule: CCOC(=O)c1ccc(CC2S/C(=C(\C#N)C(C)=O)NC2=O)cc1 (stereo not given)
result_unit: %
obs_value: -11.5

molecule: CC(=O)O[C@H]1C(=O)[C@]2(C)[C@H]([C@H](OC(=O)c3ccccc3)[C@]3(O)C[C@H](OC(=O)[C@H](O)[C@@H](NC(=O)c4ccccc4)c4ccccc4)C(C)=C1C3(C)C)[C@]1(OC(C)=O)CO[C@@H]1C[C@@H]2O
result_unit: %
obs_value: 44.3

molecule: N=c1c(C(=O)NCc2ccccc2)cc2c(=O)n3ccccc3nc2n1Cc1ccco1
result_unit: %
obs_value: 19.6

molecule: COc1cc(/C=C/C(=O)CC(=O)/C=C/c2ccc(O)c(OC)c2)ccc1O
result_unit: %
obs_value: 6.1

molecule: CN(C)CC(O)COc1ccc(-c2ccc(C#N)cc2)cc1 (stereo not given)
result_unit: %
obs_value: -4.77

molecule: COc1ccc(C(=O)Nc2cccnc2)cc1C(=O)Nc1cccnc1
result_unit: %
obs_value: 36

molecule: O=C1N[C@@H](Cc2cnc[nH]2)C(=O)N2CCC[C@@H]12
result_unit: %
obs_value: 33.3

molecule: C=CCc1ccccc1OCC(O)CNC(C)C (stereo not given)
result_unit: %
obs_value: 34.8

molecule: CC[C@]1(O)CC2CN(CCc3c([nH]c4ccccc34)[C@@](C(=O)OC)(c3cc4c(cc3OC)N(C=O)[C@H]3[C@@](O)(C(=O)OC)[C@H](OC(C)=O)[C@]5(CC)C=CCN6CC[C@]43[C@@H]65)C2)C1 (stereo not given in full)
result_unit: %
obs_value: 85.7

molecule: CCC(=O)c1ccc(O)cc1
result_unit: %
obs_value: 5.36

molecule: C[C@H](CS)C(=O)N1CCC[C@H]1C(=O)O
result_unit: %
obs_value: 12.3

molecule: Oc1ccc(/C=C/c2cc(O)cc(O)c2)cc1
result_unit: %
obs_value: -231

molecule: COc1ccc(/C(O)=C2\C(=O)C(=O)N(c3cc(C)on3)C2c2ccccc2OC)cc1 (stereo not given)
result_unit: %
obs_value: -5.11

molecule: Fc1ccccc1-c1nc(NCCCN2CCOCC2)c2ccccc2n1
result_unit: %
obs_value: -2.43

molecule: COC(=O)c1ccc(C2NC(C(=O)O)CS2)cc1 (stereo not given)
result_unit: %
obs_value: 18.9

molecule: CCCCc1nc(NCCNC(=O)c2ccco2)c(C#N)c2c1CSC(C)(C)C2
result_unit: %
obs_value: 7.1

molecule: CCSc1nnc(NC(=O)C(CC)(C(F)(F)F)C(F)(F)F)s1
result_unit: %
obs_value: -31.4

====

Target: Voltage-gated potassium channel subunit beta-2 (Rattus norvegicus)
Test: KvBeta positive modulators, primary screen, biochemical, NADPH fluorescence (AID 623);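 note: fluorescence intensity change per second fitted from 20 to 320 s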
Details: Recombinant KvBeta, NADPH fluorescence decrease slope, 10 min; at 10 µM; stronger effect = lower value

smiles_code: CC(=O)OCC(=O)[C@@]1(O)CC[C@H]2[C@@H]3CCC4=CC(=O)CC[C@]4(C)[C@H]3C(=O)C[C@@]21C
NADPH fluorescence slope: -6.1e-05
//
smiles_code: C=CCc1c(C)nc(SCCC)[nH]c1=O
NADPH fluorescence slope: -1.9e-05
//
smiles_code: CC(C)Cc1nc(N2CCN(C(=O)C(C)C)CC2)c(C#N)c2c1CCC2
NADPH fluorescence slope: -3.3e-05
//
smiles_code: Cc1ccc(C(=O)/C=C/Nc2cccc(O)c2)cc1
NADPH fluorescence slope: -0.000129
//
smiles_code: Cc1nc2sc3c(NCc4ccco4)ncnc3c2c2c1COC(C)(C)C2
NADPH fluorescence slope: -3e-05

====

Assay: inhibitors of TNFa-induced NFkB p65 translocation, primary screen, imaging, HUVEC, MLSMR starter and 10KST1 sets (AID 438);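 note: compound added about 3h40 before a 20 min TNFalpha stimulation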
Details: HUVEC TNFa-induced p65 nuclear translocation; measured here: nuclei count (cytotoxicity indicator), at 2.08 µM
cell count listing for selected molecules.

molecule: CN1C(=O)c2ccc(N(C)C)cc2C1=O
cell count: 681
--
molecule: CC(C)(C)C1=Nn2c(nnc2-c2ccco2)SC1
cell count: 663
--
molecule: Cc1ccc2[nH]c3c(c2c1)CN(C(=O)CN1CCN(c2ccccn2)CC1)CC3
cell count: 563
--
molecule: O=C(C1=C(O)C(=O)N(c2ncccn2)C1c1cccc(Cl)c1)c1ccco1 (stereo unspecified)
cell count: 454
--
molecule: CC(C)OC(=O)C(C)(C)Oc1ccc(C(=O)c2ccc(Cl)cc2)cc1
cell count: 484
--
molecule: O=C1C=C(NCCNc2c(F)c(F)c(CO)c(F)c2F)CCC1
cell count: 504
--
molecule: N#CC(C(=O)Nc1ccc(Cl)c(Cl)c1)=C1Nc2ccccc2N1
cell count: 445
--
molecule: CCc1cccc(CC)c1N(COC)C(=O)Cn1nnc2ccccc21
cell count: 369
--
molecule: C/C=C(/C(=C/C)c1ccc(O)cc1)c1ccc(O)cc1
cell count: 603
--
molecule: COc1cccc(C2/C(=C(/O)c3cnn(-c4ccccc4)c3C)C(=O)C(=O)N2CCN(C)C)c1OC (stereo unspecified)
cell count: 502
--
molecule: Cn1c(=O)n(CCc2ccccc2)c(=O)c2c1ncn2Cc1ccccc1
cell count: 505

====

Test: inhibitors of Chlamydomonas gravitaxis, primary screen, whole organism, Chlamydomonas reinhardtii, WT vs cilia-less mutant, absorbance, 96-well (AID 463189);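 note: 0% = wild type cc124 cells in DMSO and 100% = ciliumless bld1 mutant cells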
Conditions: OD600 absorbance, 2 days, at 10 µM, stronger effect = higher value
inhibition for assorted compounds
endpoint_name: inhibition (%)

smiles_code: COc1ccc(OC)c(C2=Nn3c(nnc3-c3ccco3)SC2)c1
endpoint_name: inhibition
obs_value: -10.3

smiles_code: CC1(C)Cc2c(c(N3CCOCC3)nc3snc(N)c23)CO1
endpoint_name: inhibition
obs_value: 22.3

smiles_code: COC(=O)c1ccc(CSc2ncnc3c2sc2nc(N4CCOCC4)c4c(c23)CCCC4)o1
endpoint_name: inhibition
obs_value: -7.35

smiles_code: O=c1/c(=C\c2cccn2-c2ccccc2)sc2nc3ccccc3n12
endpoint_name: inhibition
obs_value: 9.26

smiles_code: O=C(N(c1ccccc1)c1ccccc1)n1ccnc1
endpoint_name: inhibition
obs_value: -0.901

smiles_code: S=c1[nH]nc(-c2ccccc2)n1Cc1ccccc1
endpoint_name: inhibition
obs_value: -5.83

====

Molecular target: Voltage-gated potassium channel subunit beta-2 (Rattus norvegicus)
Test: KvBeta enzyme negative modulators, primary screen, biochemical, NADPH fluorescence (AID 622);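 note: slope of raw intensity against log time taken from 70 to 1610 s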
Settings: recombinant KvBeta, 4-cyanobenzaldehyde reduction, at 10 µM, stronger effect = higher value
endpoint_name: fluorescence slope

molecule: Cc1ccc2[nH]c3c(c2c1)CN(C(=O)CN1CCCc2ccccc21)CC3
endpoint_name: fluorescence slope
obs_value: -0.439
--
molecule: Cc1cccc(C)c1NC(=O)CSCC(=O)c1ccc(O)c(O)c1
endpoint_name: fluorescence slope
obs_value: -0.4
--
molecule: Cc1cc(C)nc(NC2=NCC(=O)N2c2ccc(Cl)cc2)n1
endpoint_name: fluorescence slope
obs_value: -0.492
--
molecule: Cn1nnnc1-c1cc(Br)ccc1NC(=O)c1ccccc1
endpoint_name: fluorescence slope
obs_value: -0.39
--
molecule: COCCOC(=O)c1c(C)nc(SCC(=O)Nc2ccc(C)cc2)c(C#N)c1-c1ccco1
endpoint_name: fluorescence slope
obs_value: -0.446
--
molecule: Cc1cc(C)n(CC2CC(=O)N(c3ccc(Cl)c(Cl)c3)C2=O)n1 (stereo unspecified)
endpoint_name: fluorescence slope
obs_value: -0.489
--
molecule: Cn1c(=O)c2c(ncn2CCO)n(C)c1=O
endpoint_name: fluorescence slope
obs_value: -0.45
--
molecule: Cc1nnc(SCCC#N)n(CCC#N)c1=O
endpoint_name: fluorescence slope
obs_value: -0.396
--
molecule: Nc1nc(NC(=O)Cc2ccccc2)nn1-c1ccccc1
endpoint_name: fluorescence slope
obs_value: -0.381
--
molecule: CCOC(=O)c1ccc(NC(=O)Cn2nnc3ccccc32)cc1
endpoint_name: fluorescence slope
obs_value: -0.538
--
molecule: Cc1nc2sccn2c(=O)c1CCN1CCC(=C(c2ccc(F)cc2)c2ccc(F)cc2)CC1
endpoint_name: fluorescence slope
obs_value: -0.459

====

Experiment: inhibitors of Chlamydomonas gravitaxis, primary screen, whole organism, Chlamydomonas reinhardtii, WT vs cilia-less mutant, absorbance, 96-well (AID 463189);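 note: 0% = wild type cc124 cells in DMSO and 100% = ciliumless bld1 mutant cells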
Details: OD600 absorbance, 2 days, at 10 µM, stronger effect = higher value
The source made the active and inactive calls.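 The calls were made as follows: active = inhibition at or above 50% relative to wild type and mutant plate controls; inactive = inhibition below 50%.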
endpoint_name: inhibition

molecule: CCN(CC)CCN1C(=O)C(=O)/C(=C(/O)c2ccc(F)cc2)C1c1cccnc1 (configuration not stated)
obs_value: -7.28% (inactive)
--
molecule: O=S1CCCSC1c1cccnc1 (configuration not stated)
obs_value: 2.49% (inactive)
--
molecule: CCOC(=O)Cn1c(SC)nc2sc3c(c2c1=O)CC(C)(C)OC3
obs_value: -3.53% (inactive)
--
molecule: CSc1nc(NC(C)=O)nc(C)c1Cl
obs_value: 37.7% (inactive)
--
molecule: CCCCOc1ccc(C(=O)OC2CC(C)N(C)CC2C)cc1 (configuration not stated)
obs_value: 144% (active)
--
molecule: COc1cccc(COc2nc3c(c(=O)n(C)c(=O)n3C)n2C)c1
obs_value: 5.71% (inactive)
--
molecule: C=CCn1c(SCC#N)nc2c(c1=O)C(C)(C)Cc1ccccc1-2
obs_value: 104% (active)
--
molecule: c1ccc(SCc2nc3ccccc3[nH]2)nc1
obs_value: 13.1% (inactive)
--
molecule: CCOc1nc(-c2ccncc2)nc2ccccc12
obs_value: 39.6% (inactive)
--
molecule: Cc1nc(Nc2ncc3c(n2)CCCC3=O)nc2ccccc12
obs_value: 22.8% (inactive)
--
molecule: Cc1ccc(C2C(C(=O)c3cc4ccccc4o3)=C(O)C(=O)N2CCN(C)C)o1 (configuration not stated)
obs_value: -11.1% (inactive)
--
molecule: CC(C(=O)O)c1ccc(-c2ccccc2)c(F)c1 (configuration not stated)
obs_value: 42.5% (inactive)
